Please go through the items and note down their self-cleavage.
B1: OR4K15 (parent)
chain: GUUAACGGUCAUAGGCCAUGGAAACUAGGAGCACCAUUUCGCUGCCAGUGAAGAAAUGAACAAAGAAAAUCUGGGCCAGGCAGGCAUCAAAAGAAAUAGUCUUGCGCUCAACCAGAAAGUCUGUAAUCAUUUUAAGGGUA

Variants of: B1
Assay: self-cleavage, relative activity (ratio to wild type); higher = more cleavage; in vitro, sequencing; the parent is a self-cleaving ribozyme
Numbers only.

The cases that follow already have their self-cleavage on record.
mutant-code	recorded-result
G99U	0.51
U37G G138A	1.23
U72A A114G	0.11

Provide self-cleavage values for the following items, in order.
1. A125U A140G
2. A33U A55G

1. 1.42
2. 1.84

// for each variant in input: emit self-cleavage
1. U72A A92U
2. A86G A114U
3. A33G A69G
4. A129G A134U
5. C35U U70A

1: 0.13; 2: 0.03; 3: 0.28; 4: 1.02; 5: 0.97

Looking up A18G U139A , I see its self-cleavage listed as 1.83
